Tested on: NCI-H460 lung
METHOD: NCI-60 one-dose screen, 48 h (100 = growth as untreated, 0 = no growth, -100 = all killed)
CONDITION SUMMARY: 10 µM unless noted
About 83,000 compounds went through this panel and 20% of them were active in at least one assay; those are over-represented in the sample as a whole. Calls of active or inactive are those of the source. The calls were made as follows: active = growth percent below 10; inactive = the rest.
QUANTITY MEASURED: growth

# annotated cases, reported growth shown
# COMPOUND, REPORTED
measured = [
    ("Cn1cc(-c2csc(-c3cn(CCN)c4ccc(F)cc34)n2)c2cccnc21", "23.4% (inactive)"),
    ("O=C(N/N=C\\c1ccccc1O)C1CC1", "115% (inactive)"),
    ("CN(C)CCCC1(c2ccc(F)cc2)OCc2cc(-c3ccc(C(F)(F)F)nc3)ccc21 (centres undefined)", "72.9% (inactive)"),
]

The recorded growth for entry C=COCCCCCCCCCCCCCCCCCC equals 107% (inactive)

Reported growth of Nc1ccccc1NC(=O)c1ccc(CN2CCC/C(=C\c3ccccn3)C2=O)cc1 : 17.9% (inactive)

In plain terms, Cc1cc2nc3c4cc([N+](=O)[O-])cc([N+](=O)[O-])c4n(CCN(C)C)c3nc2cc1C has a documented growth of 65.4% (inactive)

For reference, reported growth for CCC1C(=O)COC1=O (centres undefined) stands at 105% (inactive)

For NC1=NN(c2ccccc2)C(=O)/C1=C/c1ccc(Cl)cc1 the compound record lists growth as 99.1% (inactive)

Kindly note the recorded growth for CC/C=C\C[C@H]1CC=C2C(=O)C=C[C@@H]2CC=CCCCC(=O)O[C@@H](CCCCC)CC=C2C(=O)C=C[C@@H]2CC=CCCCC(=O)O[C@@H](CCCCC)CC=C2C(=O)C=C[C@@H]2CC=CCCCC(=O)O[C@@H](CCCCC)CC=C2C(=O)C=C[C@@H]2CC=CCCCC(=O)O1 , which is 30.4% [7.9 µM] (inactive)

* * *

Tested on: SK-OV-3 ovarian
METHOD: NCI-60 one-dose screen, 48 h
CONDITION SUMMARY: 10 µM unless noted
About 83,000 compounds went through this panel and 20% of them were active in at least one assay; those are over-represented in the sample as a whole. Activity calls are given as the source filed them. The calls were made as follows: active = growth percent below 10; inactive = the rest.
Your reply should match one of these outcome classes. label 1 = active, label 0 = inactive

Example entries begin here.
# SMILES STRUCTURE, MEASURED TARGET, CAT
records = [
    ("CCCCCCCC(=O)SCC/C=C/[C@@H]1CC(=O)NCc2cccc(n2)CN(Cc2ccc3ccccc3c2)CC(=O)N[C@@H](C(C)C)C(=O)O1", "SK-OV-3 ovarian", "label 0"),
    ("CCSc1sc(-c2ccc(C)cc2)nc1[P+](c1ccccc1)(c1ccccc1)c1ccccc1", "SK-OV-3 ovarian", "label 1"),
    ("CN1CCN(CCOc2ccc(-c3cnc4c(-c5ccccc5F)cnn4c3)cc2)CC1", "SK-OV-3 ovarian", "label 0"),
    ("O=[N+]([O-])c1cc(S(=O)(=O)c2ccc(F)c([N+](=O)[O-])c2)ccc1F", "SK-OV-3 ovarian", "label 0"),
    ("CCCCC[C@H]1CC=C2C(=O)C=C[C@@H]2CC=CCCCC(=O)O[C@@H](CCCCC)CC=C2C(=O)C=C[C@@H]2CC=CCCCC(=O)O[C@@H](CCCCC)CC=C2C(=O)C=C[C@@H]2CC=CCCCC(=O)O1", "SK-OV-3 ovarian", "label 0"),
]

IN: Please state the recorded outcome for this compound: O=[N+]([O-])c1cccc(/C=N\Nc2ccccc2)c1
OUT: label 0

IN: Recorded test call requested for CC(=O)O[C@H]1CC[C@]2(C)[C@H]3C(=O)C=C4[C@@H]5C[C@](C)(C(=O)N6CCCNCC6)CC[C@]5(C)CC[C@@]4(C)[C@]3(C)CC[C@H]2C1(C)C
OUT: label 0

IN: Assay outcome for CSc1ccc(N(C)c2nc(C)nc3c2CCC3)cc1 : what was it?
OUT: label 0

IN: Outcome? Cc1cccc(C)c1NCc1nc(-c2ccccc2)n[nH]1
OUT: label 0

IN: Short answer needed: outcome of this test for CC(=O)O[C@H]1CC[C@@]2(C)C(=CC[C@@H]3[C@@H]2CC[C@]2(C)C(=O)N(O)C(=O)C[C@@H]32)C1 ?
OUT: label 0
